Test system: Staphylococcus aureus
assay_remarks: Tested for in vitro for antibacterial activity against 16 clinical isolated of methicillin-resistant Staphylococcus aureus
Type: functional
observed_property: MIC90 (µg/mL)
Answers are plain numbers, in µg/mL.

{"columns": ["molecule", "value_units", "readout_value"],
 "data": [
  ["CN1Cc2csc3c(C(=O)O)c(=O)c4cc(F)c(N5CCOC(CO)C5)c1c4n23 (configuration not stated)", "µg/mL", 0.78]
]}

I need MIC90 for every entry listed below, if you could help.
1. CN1Cc2csc3c(C(=O)O)c(=O)c4cc(F)c(N5CCOC(CF)C5)c1c4n23 (configuration not stated)
2. COCC1CN(c2c(F)cc3c(=O)c(C(=O)O)c4scc5n4c3c2N(C)C5)CCO1 (configuration not stated)

Ans.
1: 0.2; 2: 0.78
